MEASURED_ON: UniProtKB P30542
Sequence (P30542 whole entry): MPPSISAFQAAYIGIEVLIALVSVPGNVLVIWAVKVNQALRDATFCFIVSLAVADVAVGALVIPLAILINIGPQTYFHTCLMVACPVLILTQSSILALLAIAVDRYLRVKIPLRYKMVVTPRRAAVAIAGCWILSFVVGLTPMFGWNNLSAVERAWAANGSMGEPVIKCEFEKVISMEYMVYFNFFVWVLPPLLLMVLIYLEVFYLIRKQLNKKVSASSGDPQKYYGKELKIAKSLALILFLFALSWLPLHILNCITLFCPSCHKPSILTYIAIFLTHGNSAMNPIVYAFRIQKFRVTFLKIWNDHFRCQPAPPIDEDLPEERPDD
Format: cell membranes, Membrane
CONDITION_LABEL: cho; also: in other assays of this panel Not Active means under 50% inhibition at 10 µM;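 also: radioligand binding assay at the adenosine A1 receptor, with DPCPX serving as the labelled ligand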
QUANTITY: IC50

Solved cases below.
INSERT INTO results (compound, measured_on, result) VALUES
  ('CC(=O)N[C@@H]1[C@H](Oc2c3cc4cc2Oc2ccc(cc2Cl)[C@@H](O[C@@H]2O[C@@H](CO)[C@@H](O)[C@H](O)[C@@H]2NC(C)=O)[C@@H]2NC(=O)[C@H](NC(=O)[C@@H]4NC(=O)[C@H]4NC(=O)[C@@H](Cc5ccc(c(Cl)c5)O3)NC(=O)[C@H](N)c3ccc(O)c(c3)Oc3cc(O)cc4c3)c3ccc(O)c(c3)-c3c(O[C@H]4O[C@H](CO)[C@@H](O)[C@@H](O)[C@@H]4O)cc(O)cc3[C@@H](C(=O)O)NC2=O)O[C@@H](CO)[C@@H](O)[C@@H]1O', 'UniProtKB P30542', 'Not Active'),
  ('CCOC(=O)C1=C(C)NC(C)=C(C(=O)OC)C1c1cccc([N+](=O)[O-])c1 (stereo not given)', 'UniProtKB P30542', 'Not Active'),
  ('CCCN(CCC)C(=O)C(CCC(=O)O)NC(=O)c1ccccc1 (stereo not given) [PROGLUMIDE]', 'UniProtKB P30542', 'Not Active'),
  ('CN(C)c1ccc(C(=C2C=CC(=[N+](C)C)C=C2)c2ccc(N(C)C)cc2)cc1.[Cl-]', 'UniProtKB P30542', 'Not Active');

From here, focus on the item given below.
Q: Report measured IC50; entry is NC(=O)NO [HYDROXYUREA]
A: Not Active
